fold change (FC): recorded values
- Target or system: Amine oxidase [copper-containing] 3 (Homo sapiens, UniProt Q16853)
- Sequence (Q16853 whole entry): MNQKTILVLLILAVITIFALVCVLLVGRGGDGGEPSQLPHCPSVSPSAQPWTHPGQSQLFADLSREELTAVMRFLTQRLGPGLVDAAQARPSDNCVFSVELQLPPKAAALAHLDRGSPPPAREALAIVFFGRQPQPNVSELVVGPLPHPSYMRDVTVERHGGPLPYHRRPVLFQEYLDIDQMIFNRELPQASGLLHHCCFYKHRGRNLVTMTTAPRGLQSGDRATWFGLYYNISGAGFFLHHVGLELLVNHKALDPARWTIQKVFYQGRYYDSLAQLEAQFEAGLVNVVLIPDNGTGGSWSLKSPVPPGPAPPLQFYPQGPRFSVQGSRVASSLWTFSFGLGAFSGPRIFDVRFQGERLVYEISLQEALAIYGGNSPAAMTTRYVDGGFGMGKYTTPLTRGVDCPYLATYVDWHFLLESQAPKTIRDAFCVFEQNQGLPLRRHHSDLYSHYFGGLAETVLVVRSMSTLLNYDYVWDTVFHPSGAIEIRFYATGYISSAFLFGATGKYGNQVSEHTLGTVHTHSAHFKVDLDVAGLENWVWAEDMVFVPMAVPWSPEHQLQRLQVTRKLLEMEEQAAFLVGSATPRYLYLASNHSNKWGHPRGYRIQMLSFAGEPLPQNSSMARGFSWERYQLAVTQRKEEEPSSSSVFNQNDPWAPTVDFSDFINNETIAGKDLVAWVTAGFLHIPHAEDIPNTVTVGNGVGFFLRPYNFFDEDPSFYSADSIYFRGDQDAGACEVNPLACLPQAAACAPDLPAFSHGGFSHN
- Assay summary: Substrate activity at recombinant human SSAO assessed as compound oxidation by measuring oxidative turnover at 30 uM measured for 40 mins by horseradish peroxidase-coupled amplex red reagent-based fluorometric assay relative to DMSO
- Type: ADME

>  <Smiles input>
CN(C)S(=O)(=O)c1ccc(-c2ccn(C/C(F)=C/CN)c2)cc1.Cl

>  <Result>
> 4

$$$$

Enquiry: Recorded fold change (FC) of Cc1c(-c2ccc(S(=O)(=O)N(C)C)cc2)c2ccccc2n1C/C(F)=C/CN.Cl , please.
Return: 2.8

Enquiry: # fold change (FC) lookup, item CN(C)S(=O)(=O)c1ccc(OCc2cn(C/C(F)=C/CN)nn2)cc1.Cl
Return: > 4

Enquiry: What does the data say about its fold change (FC)? Entry: Cc1c(-c2cccc(S(=O)(=O)N(C)C)c2)c2cc(O)ccc2n1C/C(F)=C/CN.Cl
Return: 1

---

- Target or system: Lysyl oxidase homolog 2 (Rattus norvegicus)
- Sequence (B5DF27 whole entry): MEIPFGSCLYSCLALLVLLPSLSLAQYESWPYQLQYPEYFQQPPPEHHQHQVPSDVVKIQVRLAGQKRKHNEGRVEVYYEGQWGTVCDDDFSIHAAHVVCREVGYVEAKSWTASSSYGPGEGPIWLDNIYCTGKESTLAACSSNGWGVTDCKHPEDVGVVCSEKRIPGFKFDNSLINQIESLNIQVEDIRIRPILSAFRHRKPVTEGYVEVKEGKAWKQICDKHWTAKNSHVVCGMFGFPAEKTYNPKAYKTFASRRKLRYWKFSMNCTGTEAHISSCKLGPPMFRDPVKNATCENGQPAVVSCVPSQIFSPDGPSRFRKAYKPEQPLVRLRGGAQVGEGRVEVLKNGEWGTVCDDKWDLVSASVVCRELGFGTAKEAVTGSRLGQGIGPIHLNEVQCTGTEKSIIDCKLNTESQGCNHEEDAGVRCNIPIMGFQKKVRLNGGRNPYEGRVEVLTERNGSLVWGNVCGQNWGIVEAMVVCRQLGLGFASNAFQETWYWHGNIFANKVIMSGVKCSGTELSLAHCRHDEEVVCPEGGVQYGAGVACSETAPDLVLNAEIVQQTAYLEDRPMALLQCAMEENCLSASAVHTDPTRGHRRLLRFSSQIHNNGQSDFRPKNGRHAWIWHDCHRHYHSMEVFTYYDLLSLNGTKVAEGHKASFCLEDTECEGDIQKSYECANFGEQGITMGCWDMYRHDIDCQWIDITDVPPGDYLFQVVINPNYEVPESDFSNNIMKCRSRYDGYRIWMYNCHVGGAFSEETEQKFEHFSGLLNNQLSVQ
- Assay summary: Inhibition of recombinant rat LOLX2 using putrescine as substrate preincubated with enzyme for 30 mins followed by substrate addition and measured every 2.5 mins for 30 mins by Amplex-Red oxidation assay
Property name: pIC50
Scale: pIC50 equals -log10([C]), with [C] in mol/L.

Enquiry: For the compound Cc1c(-c2cccc(S(=O)(=O)N(C)C)c2)c2cc(C(=O)O)ccc2n1C/C(F)=C/CN.Cl , what pIC50 is on record?
Return: 8.22

---

- Target or system: Lysyl oxidase homolog 2 (Homo sapiens)
- Sequence (Q9Y4K0 whole entry, the tested form may be a part): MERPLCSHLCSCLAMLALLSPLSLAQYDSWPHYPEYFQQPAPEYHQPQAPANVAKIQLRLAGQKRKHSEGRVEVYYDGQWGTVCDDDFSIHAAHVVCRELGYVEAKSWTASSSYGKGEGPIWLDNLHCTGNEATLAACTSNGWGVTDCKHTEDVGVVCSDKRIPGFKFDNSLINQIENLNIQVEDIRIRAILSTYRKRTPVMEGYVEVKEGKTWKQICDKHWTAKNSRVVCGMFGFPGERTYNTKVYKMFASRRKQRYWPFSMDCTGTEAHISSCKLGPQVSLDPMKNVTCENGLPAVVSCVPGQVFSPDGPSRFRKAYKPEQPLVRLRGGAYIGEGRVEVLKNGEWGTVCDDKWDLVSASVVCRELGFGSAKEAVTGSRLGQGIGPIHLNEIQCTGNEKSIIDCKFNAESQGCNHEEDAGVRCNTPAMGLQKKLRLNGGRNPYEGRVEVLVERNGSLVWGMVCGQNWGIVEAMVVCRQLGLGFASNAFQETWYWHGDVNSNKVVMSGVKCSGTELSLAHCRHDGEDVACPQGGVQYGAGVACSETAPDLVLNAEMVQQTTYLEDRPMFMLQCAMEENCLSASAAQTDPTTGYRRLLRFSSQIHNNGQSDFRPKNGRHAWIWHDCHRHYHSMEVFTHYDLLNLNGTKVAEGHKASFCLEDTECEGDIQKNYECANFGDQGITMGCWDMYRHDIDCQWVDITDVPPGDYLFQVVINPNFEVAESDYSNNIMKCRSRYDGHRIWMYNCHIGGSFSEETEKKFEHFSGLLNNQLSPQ
- Assay summary: Inhibition of recombinant human C-terminal His-tagged […] (1-774 residues) expressed in mouse myeloma cells using putrescine as substrate preincubated with enzyme for 30 mins followed by substrate addition and measured every 2.5 mins for 30 mins by Amplex-Red oxidation assay
- Test context: read-out: IC50
Property name: IC50 (nM)
Express it in nM; write the number only.

Enquiry: Query IC50 on Lysyl oxidase homolog 2 (Homo sapiens) for Cc1c(-c2cccc(S(=O)(=O)N(C)C)c2)c2cc(C(=O)O)ccc2n1C/C(F)=C/CN.Cl
Return: 5

---

- Assay summary: Stability in dog plasma assessed as half life
Property name: half-life

Enquiry: Consider the molecule shown here: Cc1c(-c2cccc(S(=O)(=O)N(C)C)c2)c2cc(C(=O)O)ccc2n1C/C(F)=C/CN.Cl What is its recorded half-life?
Return: > 2 h

---

- Assay summary: Stability in human plasma assessed as half life
- Assay type: ADME, cell-free
Property name: half-life

Enquiry: half-life for Cc1c(-c2cccc(S(=O)(=O)N(C)C)c2)c2cc(C(=O)O)ccc2n1C/C(F)=C/CN.Cl ?
Return: > 2 h

---

- Target or system: UniProtKB Q16853
- Assay summary: Inhibition of recombinant human SSAO using benzylamine as substrate preincubated with enzyme for 30 mins followed by substrate addition and measured every 2.5 mins for 30 mins by Amplex-Red oxidation assay
- Test context: read-out: IC50
Property name: IC50

Enquiry: Provide the documented IC50 with UniProtKB Q16853 as the system for Cc1c(-c2cccc(S(=O)(=O)N(C)C)c2)c2cc(C(=O)O)ccc2n1C/C(F)=C/CN.Cl
Return: > 30 µM

---

- Assay summary: Oral bioavailability in mouse
- Format: ADME, organism-based
- Test context: in vivo
Property name: bioavailability

Enquiry: Which bioavailability reading was recorded for the compound Cc1c(-c2cccc(S(=O)(=O)N(C)C)c2)c2cc(C(=O)O)ccc2n1C/C(F)=C/CN.Cl ?
Return: < 1%
